Values were extracted from the supplement of paper PMC9112550.

Test system: Escherichia coli TOP10;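 further: peptides expressed intracellularly from a pBAD plasmid library in pooled LB shake-flask culture, induced with 0.3% L-arabinose, DNA abundance read by NGS, three biological replicates, DESeq2 with apeglm shrinkage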
Experiment: shrunken log2 fold change of peptide-encoding DNA abundance (4.5 h post-induction vs induction); higher = less antimicrobial activity (less host growth inhibition)
Settings: time post-induction: 4.5 h; library: site-saturation at positions 5, 18, 19, 20
Classes (shrunken log2 fold change): bin A: < -0.2; bin B: ≥ -0.2 and < -0.0002; bin C: ≥ -0.0002

| SEQ | TESTED ON | CLASS NAME |
| --- | --- | --- |
| RRIRQRPPRLPRPRPRPSWKPRP | Escherichia coli TOP10 | bin A |
| RRIRWRPPRLPRPRPRPYLSPRP | Escherichia coli TOP10 | bin A |
| RRIRGRPPRLPRPRPRPWTTPRP | Escherichia coli TOP10 | bin C |
| RRIRTRPPRLPRPRPRPFMHPRP | Escherichia coli TOP10 | bin A |
| RRIRDRPPRLPRPRPRPCHQPRP | Escherichia coli TOP10 | bin A |
| RRIRPRPPRLPRPRPRPPLGPRP | Escherichia coli TOP10 | bin C |
| RRIRYRPPRLPRPRPRPYGQPRP | Escherichia coli TOP10 | bin B |
| RRIRIRPPRLPRPRPRPCAGPRP | Escherichia coli TOP10 | bin B |
| RRIRLRPPRLPRPRPRPTFDPRP | Escherichia coli TOP10 | bin B |
| RRIRRRPPRLPRPRPRPAIAPRP | Escherichia coli TOP10 | bin C |
| RRIRTRPPRLPRPRPRPAKEPRP | Escherichia coli TOP10 | bin B |
| RRIRLRPPRLPRPRPRPRLKPRP | Escherichia coli TOP10 | bin C |
| RRIRSRPPRLPRPRPRPTIMPRP | Escherichia coli TOP10 | bin A |
| RRIRQRPPRLPRPRPRPIKKPRP | Escherichia coli TOP10 | bin B |
| RRIRGRPPRLPRPRPRPMSPPRP | Escherichia coli TOP10 | bin C |
| RRIRFRPPRLPRPRPRPAITPRP | Escherichia coli TOP10 | bin B |
| RRIRHRPPRLPRPRPRPATIPRP | Escherichia coli TOP10 | bin A |
| RRIRHRPPRLPRPRPRPERHPRP | Escherichia coli TOP10 | bin C |
| RRIRHRPPRLPRPRPRPYSDPRP | Escherichia coli TOP10 | bin A |
| RRIRWRPPRLPRPRPRPQFYPRP | Escherichia coli TOP10 | bin A |
| RRIRMRPPRLPRPRPRPYWCPRP | Escherichia coli TOP10 | bin B |
| RRIRGRPPRLPRPRPRPPTYPRP | Escherichia coli TOP10 | bin C |
| RRIRNRPPRLPRPRPRPSCTPRP | Escherichia coli TOP10 | bin A |
| RRIRIRPPRLPRPRPRPHIPPRP | Escherichia coli TOP10 | bin A |
| RRIRHRPPRLPRPRPRPLEGPRP | Escherichia coli TOP10 | bin C |
| RRIRTRPPRLPRPRPRPMFEPRP | Escherichia coli TOP10 | bin B |
| RRIRPRPPRLPRPRPRPHRQPRP | Escherichia coli TOP10 | bin B |
| RRIRPRPPRLPRPRPRPDGAPRP | Escherichia coli TOP10 | bin C |
| RRIRDRPPRLPRPRPRPSQSPRP | Escherichia coli TOP10 | bin B |
| RRIRCRPPRLPRPRPRPHPSPRP | Escherichia coli TOP10 | bin B |
| RRIRHRPPRLPRPRPRPYPYPRP | Escherichia coli TOP10 | bin A |
| RRIRPRPPRLPRPRPRPQLKPRP | Escherichia coli TOP10 | bin C |
